System: U251 CNS
Assay: NCI tumour cell line growth inhibition, 48 h
TGI values, listed per item
MEASURED_METRIC: TGI

COMPOUND: CC(C)N(C(=O)C12C3C4C5C3C1(C(=O)O)C5C42)C(C)C (stereo unspecified)
RESULT: > 100 µM
//
COMPOUND: COC(=O)CN(CC(=O)NCCNC(=O)OC(C)(C)C)C1CCCCC1N(CC(=O)OC)CC(=O)OC (stereo unspecified)
RESULT: > 100 µM
//
COMPOUND: CCOC(=O)C(=[N+]=[N-])C(=O)CSC#N
RESULT: > 100 µM
//
COMPOUND: Nc1nc(-c2cccnc2)cc(-c2cc(-c3cccnc3)nc(N)n2)n1
RESULT: > 100 µM
//
COMPOUND: CCc1cccc(C(C)C)c1NC(=O)/C(=N\NC(N)=O)C(C(=O)OC)c1cnc2ccccc2n1 (stereo unspecified)
RESULT: > 100 µM
//
COMPOUND: Cn1cnc([N+](=O)[O-])c1Sc1n[nH]c(-c2ccc(Cl)cc2)n1
RESULT: 48.9 µM
//
COMPOUND: CC(=O)OCC12CC(CC1OC(C)=O)c1ccccc12 (stereo unspecified)
RESULT: > 100 µM
//
COMPOUND: CC(=O)N1c2ccccc2N(C(C)=O)C1c1ccc(C2N(C(C)=O)c3ccccc3N2C(C)=O)[nH]1
RESULT: > 100 µM
//
COMPOUND: CCOc1ccccc1/C=N\N=C(N/N=C/c1ccccc1OCC)N/N=C/c1ccccc1OCC
RESULT: > 100 µM
//
COMPOUND: CC1OC(n2cc(F)c(=O)[nH]c2=O)CCC1=O (stereo unspecified)
RESULT: > 100 µM
//
COMPOUND: O=C1OC(c2ccc(O)cc2)(c2ccc(O)cc2)c2ccc(Cl)c3cccc1c23 (tested in a mixture with another compound)
RESULT: 25.2 µM
//
COMPOUND: CCCCN(CCCC)P(=O)(Oc1ccccc1)Oc1ccccc1
RESULT: 19.1 µM
//
COMPOUND: COc1cccc(S(=O)(=O)NC2=NCCN2C(=S)SN2CCn3c2nsc3=S)c1
RESULT: 61.8 µM
//
COMPOUND: O=S(=O)(c1ccccc1)C1CC(c2nc3ccccc3[nH]2)=NO1 (stereo unspecified)
RESULT: > 100 µM
//
COMPOUND: C=CC12CCCCC1CC(C(=O)OC)=C(O)C2 (stereo unspecified)
RESULT: > 100 µM
//
COMPOUND: COc1ccc(C2(Cl)C(Cl)(C(F)(F)F)C2(Cl)C(F)(F)F)cc1 (stereo unspecified)
RESULT: 28.2 µM
//
COMPOUND: COc1ccc(OC)c(N2CC(O)=C(c3nc4ccccc4s3)C2=N)c1
RESULT: > 100 µM
//
COMPOUND: COC(=O)C(Cc1nc2ccc(Cl)cc2[nH]c1=O)C(=O)C(=O)Nc1cc(C)ccc1C (stereo unspecified)
RESULT: > 100 µM
//
COMPOUND: CC(C)(C)c1cc(C[P+](c2ccccc2)(c2ccccc2)c2ccccc2)cc(C(C)(C)C)c1O
RESULT: 3.76 µM
//
COMPOUND: COc1cc(C2c3cc4c(cc3OC(NNC(N)=S)C2C)OCO4)cc(OC)c1OC (stereo unspecified)
RESULT: > 42.9 µM
//
COMPOUND: Oc1ccc(Br)cc1C=Nc1c(NC2CCCCC2)oc2ccc(Br)cc12
RESULT: > 100 µM

Just for reference, PubChem BioAssay (NCI) is where these values come from.
